Test system: U251 CNS
ASSAY_NAME: NCI tumour cell line growth inhibition, 48 h
OBSERVED_PROPERTY: TGI

q: Provide measured TGI value, entry: Cc1cccc(/C=N/NC(=S)Nc2ccccc2)n1
a: > 54.9 µM

q: Provide measured TGI value, entry: CCC(CO)Nc1nc2ccc(Cl)cc2c2ccccc12 (stereo unspecified)
a: 18.3 µM

q: Provide measured TGI value, entry: CC(=O)NNc1nc(C)c(C(=O)NNC(=O)C(=O)Nc2ccc(Cl)cc2)s1
a: > 100 µM

q: Provide measured TGI value, entry: O=C(Nc1ccc(C2=NCCN2)cc1)c1cncc(C(=O)Nc2ccc(C3=NCCN3)cc2)c1
a: > 100 µM

q: Provide measured TGI value, entry: Cn1cc(C2=C(c3cn(C)c4ncccc34)C(=O)NC2=O)c2ccccc21
a: > 25 µM

q: Provide measured TGI value, entry: COc1cc([C@@H]2c3cc4c(cc3[C@@H](Nc3ccc([N+](=O)[O-])cc3C(=O)c3ccccc3)[C@H]3COC(=O)[C@H]23)OCO4)cc(OC)c1OC
a: > 100 µM
